We begin with a simple list: items and their reported apparent KD of K4 kissing-loop reporter.
# Tested on: K4 kissing-loop RNA reporter;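 also: bound reporter read as fluorescence of individual clusters on recovered sequencing chips by microscopy, with normalized cluster intensities fitted with a binding model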
# assay.details: apparent KD of K4 kissing-loop reporter; higher = weaker reporter binding
# study.conditions: Eterna round: R107; input ligand: none
Reply with just the number (in nM).

A selection of reference data follows.
IN: If you can, please state the reported apparent KD of K4 kissing-loop reporter value of CUGCAACAUAACUUCUUCGUCCUAGAAGACUAGGAUAUCAGGAAACUGAGAAGGAGUCUCUGCAGUGAUGUUGCAGUUAGGACGA [KL-SSFMN-A7] .
OUT: 115

IN: If you can, please state the reported apparent KD of K4 kissing-loop reporter value of AAAACUCGGUAGUGAUGUUAUUGAGUGAACAAGGAUAUCUAUGAUAAGAGAAGGUGUAAGUUAAGCGUAUUUCGGCCUGUACAAU [theeternabot_sameState_KL_FMN_A_34] .
OUT: 114

IN: If you can, please state the reported apparent KD of K4 kissing-loop reporter value of `GCCGUAGAUUGAAGGAGCGGGCCGUAGUGAUGUUACGCCAAAUUAUCCUUUCUUGAGGUGGUCCAGGUAGGUCGCAAUCUACGGC` .
OUT: 148

IN: If you can, please state the reported apparent KD of K4 kissing-loop reporter value of CGCAGUGAUGUUGCGAGUAGAUACAGGGAAGGAGCGCGGUAGUACGCAGGUAGGUCGCCCACGCAGUGAUGUUGCGUCAUAGGGU [Exclusion Arginine A GF6] .
OUT: 91

IN: If you can, please state the reported apparent KD of K4 kissing-loop reporter value of GUUACGCAUGGAAGGAGCGCACUCCGAUUGGACGACACAGUGAUGUUGUGGUUCGUUCGAAUGCAGGUAGGUCGCCAUGUGUAAC [Ex Arginine B K4 19] .
OUT: 150

Further cases:
IN: If you can, please state the reported apparent KD of K4 kissing-loop reporter value of UGUCAUUGGUCGGCCGCCACUCCAUAAAGAGUGAUGUUCUAAAAGACGGAUCGAAAGAUCUGUCGGAGGACCGGGACCGAUGACU [FiskerMod 4 - Jieux - Same State - Tryptophan B] .
OUT: 1090

IN: If you can, please state the reported apparent KD of K4 kissing-loop reporter value of CUUAUGGAGUGUCGUACCGGACACUGGGAAGGAGCGCAAUUCUUUGCAGGUAGGUCGCCCAGUGAUGUUGGGUGGCGCUGUCGAA [Xebeor] .
OUT: 181
